Entry source: patent US11370770B2

# TARGET OF ASSAY: MEK2 (Homo sapiens (Human), UniProt P36507)
# Sequence (P36507 whole entry): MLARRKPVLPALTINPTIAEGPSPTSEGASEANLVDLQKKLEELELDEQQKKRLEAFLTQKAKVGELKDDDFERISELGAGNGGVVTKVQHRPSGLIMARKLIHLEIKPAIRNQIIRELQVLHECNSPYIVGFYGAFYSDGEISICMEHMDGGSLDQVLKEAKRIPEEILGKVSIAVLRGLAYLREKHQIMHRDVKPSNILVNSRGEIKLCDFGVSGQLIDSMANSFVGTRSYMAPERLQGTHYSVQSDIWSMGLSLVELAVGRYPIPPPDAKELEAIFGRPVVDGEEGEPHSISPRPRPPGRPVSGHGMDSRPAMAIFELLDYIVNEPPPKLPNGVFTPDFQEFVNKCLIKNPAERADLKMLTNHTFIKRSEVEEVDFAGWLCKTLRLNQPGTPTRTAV
# PROTOCOL NOTES: MEK family profiling ADP-Glo, MEK2
# Type: biochemical
# TEST SETTINGS: Erk2 substrate; 0.6 μM ATP; read-out: IC50 MEK isoform 2
Reported pIC50 by item:
Give only the number. pIC50 is defined as minus log10 of concentration in molar units.

# COMPOUND, ASSAY READOUT, MEASURED
rows = [
    ("Cc1ccc2[nH]nc(-c3ccc(O)cc3)c2c1 [Compound 6q, 4-(5-methyl-2H-indazol-3-yl)phenol]", "pIC50", 5.14),
    ("Oc1ccc(-c2n[nH]c3ccc(C(F)(F)F)cc23)cc1 [Compound 6j]", "pIC50", 5.28),
]

Proceeding to the next compound to report its pIC50.
Req: Request - read-out pIC50 | tested on MEK2 (Homo sapiens (Human), UniProt P36507) | compound Cc1ccc2[nH]nc(-c3ccc4c(c3)OCO4)c2c1 [Compound 6p]
Resp: 5.04
